# ASSAY PROCEDURE: Measurement of logP values by HPLC on reversed phase columns (EEC directive 79/831 Annex V.A8)
# Assay type: physicochemical
# TEST SETTINGS: pH 2.7, 0.1% formic acid in water / acetonitrile gradient, calibration with alkan-2-ones
Define the label as yes when Log P is strictly less than 4 and as no in all remaining cases.

>>> qualitative_label("Cc1nnnn1C(=NOCc1cccc(NC(=O)C(C)OCC2CC2)n1)c1ccccc1 (centres unmarked)")
"yes"
>>> qualitative_label("Cn1nnnc1C(=NOCc1cccc(NC(=O)COCC2CCCCO2)n1)c1ccccc1 (centres unmarked)")
"yes"
>>> qualitative_label("Cc1nnnn1C(=NOCc1cccc(NC(=O)C(C)OCC2CCCCC2)n1)c1ccccc1 (centres unmarked)")
"no"
>>> qualitative_label("Cc1nnnn1C(=NOCc1csc(NC(=O)C(C)(C)CSC2CCCCC2)n1)c1ccccc1")
"no"
>>> qualitative_label("CC(SC1CCCCC1)C(=O)Nc1nc(CON=C(c2ccccc2)c2nnnn2C)cs1 (centres unmarked)")
"no"
>>> qualitative_label("CC(OCC1CCCCO1)C(=O)Nc1cccc(CON=C(c2ccccc2)c2nnnn2C)n1 (centres unmarked)")
"yes"
>>> qualitative_label("Cc1nnnn1C(=NOCc1cccc(NC(=O)COCCC2CCCCC2)n1)c1ccccc1")
"no"
>>> qualitative_label("Cn1nnnc1C(=NOCc1cccc(NC(=O)CSCC2CC2)n1)c1ccccc1")
"yes"
>>> qualitative_label("Cn1nnnc1C(=NOCc1cccc(NC(=O)CCOCc2ccccc2)n1)c1ccccc1")
"yes"
>>> qualitative_label("Cn1nnnc1C(=NOCc1cccc(NC(=O)CCSCc2ccccc2)n1)c1ccccc1")
"yes"
>>> qualitative_label("Cc1nnnn1C(=NOCc1cccc(NC(=O)COCC2CCCCC2)n1)c1ccccc1")
"no"
>>> qualitative_label("C=CCSC(C)C(=O)Nc1nc(CON=C(c2ccccc2)n2nnnc2C)cs1 (centres unmarked)")
"yes"
>>> qualitative_label("Cn1nnnc1C(=NOCc1csc(NC(=O)COCCC2CCCCC2)n1)c1ccccc1")
"no"

###

# ASSAY PROCEDURE: Measurement of logP values by HPLC on reversed phase columns (EEC directive 79/831 Annex V.A8)
# Format: physicochemical
# TEST SETTINGS: pH 2.7, 0.1% formic acid in water / acetonitrile gradient, calibration with alkan-2-ones
ENDPOINT: Log P

>>> result_value("Cc1ccccc1CSCC(=O)Nc1nc(CON=C(c2ccccc2)n2nnnc2C)cs1")
4.06
>>> result_value("Cn1nnnc1C(=NOCc1csc(NC(=O)COCc2ccccc2)n1)c1ccccc1")
3.37
>>> result_value("Cc1nnnn1C(=NOCc1csc(NC(=O)C(C)SCc2ccccc2)n1)c1ccccc1 (centres unmarked)")
3.85
>>> result_value("Cc1nnnn1C(=NOCc1csc(NC(=O)C(C)OCC2CCCCC2)n1)c1ccccc1 (centres unmarked)")
4.74
>>> result_value("Cn1nnnc1C(=NOCc1csc(NC(=O)COCCC2CCCC2)n1)c1ccccc1")
4.29
>>> result_value("Cn1nnnc1C(=NOCc1csc(NC(=O)CSC2CCCCC2)n1)c1ccccc1")
3.92
>>> result_value("CC(OCc1ccccc1)C(=O)Nc1nc(CON=C(c2ccccc2)c2nnnn2C)cs1 (centres unmarked)")
3.71
>>> result_value("Cc1nnnn1C(=NOCc1cccc(NC(=O)C(C)OCC2CCCC2)n1)c1ccccc1 (centres unmarked)")
4.69
